molecular target: Sodium/glucose cotransporter 1 (Homo sapiens); test: Inhibition of human SGLT1 expressed in CHO cells assessed as inhibition of methyl alpha-D-glucopyranoside uptake after 1 hr
Sequence (P13866 whole entry): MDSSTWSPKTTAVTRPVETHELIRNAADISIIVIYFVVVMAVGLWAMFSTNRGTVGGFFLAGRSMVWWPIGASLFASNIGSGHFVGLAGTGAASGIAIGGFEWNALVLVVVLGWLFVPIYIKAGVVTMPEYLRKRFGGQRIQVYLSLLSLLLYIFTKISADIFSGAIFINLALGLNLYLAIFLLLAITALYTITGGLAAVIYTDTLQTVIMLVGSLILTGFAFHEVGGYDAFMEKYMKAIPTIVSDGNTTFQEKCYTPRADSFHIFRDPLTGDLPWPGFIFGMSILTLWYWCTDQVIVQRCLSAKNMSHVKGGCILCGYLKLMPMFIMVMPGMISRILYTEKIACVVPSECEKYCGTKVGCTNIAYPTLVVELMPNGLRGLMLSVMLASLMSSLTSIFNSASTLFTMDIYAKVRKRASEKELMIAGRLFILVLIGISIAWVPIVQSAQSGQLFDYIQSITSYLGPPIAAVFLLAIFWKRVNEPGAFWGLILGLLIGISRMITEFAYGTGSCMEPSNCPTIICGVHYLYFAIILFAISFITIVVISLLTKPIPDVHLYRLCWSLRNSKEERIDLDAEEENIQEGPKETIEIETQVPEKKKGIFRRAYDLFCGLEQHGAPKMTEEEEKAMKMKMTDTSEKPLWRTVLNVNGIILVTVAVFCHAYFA
pIC50: −log10 of the molar value.
measured.property: pIC50

1. COc1ccc(Cc2cc([C@]34OC[C@](CO)(O3)[C@@H](O)[C@H](O)[C@H]4O)ccc2C)cc1
2. CCOc1ccc(Cc2cc([C@]34OC[C@](CO)(O3)[C@@H](O)[C@H](O)[C@H]4O)ccc2C)cc1
Which item exceeds the other in pIC50, 1 or 2 ? Reply with the label of the item you choose. 1

* * *

test: Apparent intrinsic clearance in human hepatocytes assessed per million of cells; format: ADME, cell-based, Liver, Hepatocyte
measured.property: hepatocyte CLint (µL/min/1e6 cells)

a. CCOc1ccc(Cc2cc([C@]34OC[C@](CO)(O3)[C@@H](O)[C@H](O)[C@H]4O)ccc2Cl)cc1
b. COc1ccc(Cc2cc([C@]34OC[C@](CO)(O3)[C@@H](O)[C@H](O)[C@H]4O)ccc2C)cc1
Between a and b , which one has the lower reported hepatocyte CLint value? Mark your answer with the label of the selected entry. b
(b: 2.1 µL/min/1e6 cells, a: 4.5 µL/min/1e6 cells)

* * *

assay: Lipophilicity, log D of the compound; format: physicochemical; settings: octanol/water
measured.property: logD

- COc1ccc(Cc2cc([C@@H]3O[C@H](CO)[C@@H](O)[C@H](O)[C@H]3O)ccc2Cl)cc1: 3
- CCc1ccc(Cc2cc([C@@H]3OC4(CNC4)[C@@H](O)[C@H](O)[C@H]3O)ccc2C)cc1: 3.2
- COc1ccc(Cc2cc([C@]34OC[C@](CO)(O3)[C@@H](O)[C@H](O)[C@H]4O)ccc2Cl)cc1: 3.2
- COc1ccc(Cc2cc([C@@H]3O[C@H](CO)[C@@H](O)[C@H](O)[C@H]3O)ccc2C)cc1: 2.4

* * *

assay: Renal clearance in Sprague-Dawley rat at 2 mg/kg, iv; format: ADME, organism-based, Kidney; set-up: dose 2 mg/kg, route intravenous; conditions: in vivo
measured.property: CL renal (mL/min/kg)
API: value field is a number in mL/min/kg; no unit string.

Which CL renal is listed for COc1ccc(Cc2cc([C@@H]3OC4(COC4)[C@@H](O)[C@H](O)[C@H]3O)ccc2C)cc1 ? 1.8

* * *

test: Apparent intrinsic clearance in human liver microsomes assessed per mg of protein; assay type: ADME, Microsome
measured.property: microsomal CLint (µL/min/mg)

Answered cases to consult:
- COc1ccc(Cc2cc([C@@H]3OC4(COC4)[C@@H](O)[C@H](O)[C@H]3O)ccc2C)cc1: 12
- COc1ccc(Cc2cc([C@]34OC[C@](CO)(O3)[C@@H](O)[C@H](O)[C@H]4O)ccc2Cl)cc1: 9.2
- CCOc1ccc(Cc2cc([C@]34OC[C@](CO)(O3)[C@@H](O)[C@H](O)[C@H]4O)ccc2C)cc1: 8.9
- COc1ccc(Cc2cc([C@]34OC[C@](CO)(O3)[C@@H](O)[C@H](O)[C@@H]4O)ccc2Cl)cc1: 15

P. CCOc1ccc(Cc2cc([C@]34OC[C@](CO)(O3)[C@@H](O)[C@H](O)[C@H]4O)ccc2Cl)cc1 [ERTUGLIFLOZIN]
Q. CCc1ccc(Cc2cc([C@@H]3OC4(CNC4)[C@@H](O)[C@H](O)[C@H]3O)ccc2C)cc1
Which of the two gives a bigger number for microsomal CLint: P or Q ? Field: selected label. Fill in the label of the entry you choose. Q
(Q: 32 µL/min/mg, P: 12 µL/min/mg)

* * *

assay: Apparent intrinsic clearance in human hepatocytes assessed per million of cells; format: ADME, cell-based, Liver, Hepatocyte
measured.property: hepatocyte CLint (µL/min/1e6 cells)

* COc1ccc(Cc2cc([C@]34OC[C@](CO)(O3)[C@@H](O)[C@H](O)[C@@H]4O)ccc2Cl)cc1 | 2.3
* COc1ccc(Cc2cc([C@@H]3OC4(COC4)[C@@H](O)[C@H](O)[C@H]3O)ccc2C)cc1 | 44
* CCOc1ccc(Cc2cc([C@]34OC[C@](CO)(O3)[C@@H](O)[C@H](O)[C@H]4O)ccc2C)cc1 | 2

P. COc1ccc(Cc2cc([C@]34OC[C@](CO)(O3)[C@@H](O)[C@H](O)[C@H]4O)ccc2Cl)cc1
Q. COc1ccc(Cc2cc([C@@H]3O[C@H](CO)[C@@H](O)[C@H](O)[C@H]3O)ccc2C)cc1
Smaller hepatocyte CLint value, P vs Q ? Indicate which entry you chose by stating its label. P

* * *

assay: Tmax in Sprague-Dawley rat at 5 mg/kg, po; assay type: ADME, organism-based; design: dose 5 mg/kg, route oral; settings: in vivo
measured.property: Tmax (h)
Reply numerically in h, unit not repeated.

Requested read-out: Tmax. Entry: CCOc1ccc(Cc2cc([C@]34OC[C@](CO)(O3)[C@@H](O)[C@H](O)[C@H]4O)ccc2Cl)cc1 1

* * *

biological target: Sodium/glucose cotransporter 2 (Rattus norvegicus)
Sequence (P53792 whole entry): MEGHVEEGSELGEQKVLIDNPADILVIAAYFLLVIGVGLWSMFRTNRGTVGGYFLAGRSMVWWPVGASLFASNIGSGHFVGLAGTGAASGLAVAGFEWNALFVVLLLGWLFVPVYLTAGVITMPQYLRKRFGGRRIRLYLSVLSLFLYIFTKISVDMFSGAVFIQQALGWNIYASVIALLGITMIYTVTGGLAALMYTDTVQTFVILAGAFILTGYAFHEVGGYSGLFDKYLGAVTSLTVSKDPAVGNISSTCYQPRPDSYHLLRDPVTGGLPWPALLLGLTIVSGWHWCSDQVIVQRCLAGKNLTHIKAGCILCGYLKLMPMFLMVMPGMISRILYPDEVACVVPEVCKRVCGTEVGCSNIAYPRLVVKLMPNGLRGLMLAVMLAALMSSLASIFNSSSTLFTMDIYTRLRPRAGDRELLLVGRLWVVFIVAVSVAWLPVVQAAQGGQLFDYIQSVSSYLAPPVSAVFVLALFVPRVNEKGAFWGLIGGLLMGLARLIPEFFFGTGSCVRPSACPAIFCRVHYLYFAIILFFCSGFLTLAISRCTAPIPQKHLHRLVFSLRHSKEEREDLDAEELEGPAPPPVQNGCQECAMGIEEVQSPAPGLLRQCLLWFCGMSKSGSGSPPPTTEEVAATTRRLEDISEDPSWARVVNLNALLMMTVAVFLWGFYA
measured.property: IC50 (nM)
Give a bare numeral; the unit nM is implied.

# get_value(readout= IC50, system= Sodium/glucose cotransporter 2 (Rattus norvegicus)) for CCOc1ccc(Cc2cc([C@]34OC[C@](CO)(O3)[C@@H](O)[C@H](O)[C@H]4O)ccc2Cl)cc1 [ERTUGLIFLOZIN] 1.15

* * *

experiment: Cmax in Sprague-Dawley rat at 5 mg/kg, po; type: ADME, organism-based; design: dose 5 mg/kg, route oral; details: in vivo
measured.property: Cmax (ng/mL)
Note: unit ng/mL is implicit; provide only the numeric part.

Can you share its Cmax? I mean this compound: CCOc1ccc(Cc2cc([C@]34OC[C@](CO)(O3)[C@@H](O)[C@H](O)[C@H]4O)ccc2Cl)cc1 1940

* * *

assay: Lipophilicity, log D of the compound; format: physicochemical; conditions: octanol/water
measured.property: logD

- CCOc1ccc(Cc2cc([C@]34OC[C@](CO)(O3)[C@@H](O)[C@H](O)[C@@H]4O)ccc2Cl)cc1: 3.8
- COc1ccc(Cc2cc([C@]34OC[C@](CO)(O3)[C@@H](O)[C@H](O)[C@H]4O)ccc2C)cc1: 2.6
- COc1ccc(Cc2cc([C@]34OC[C@](CO)(O3)[C@@H](O)[C@H](O)[C@@H]4O)ccc2Cl)cc1: 3.9
- CCOc1ccc(Cc2cc([C@]34OC[C@](CO)(O3)[C@@H](O)[C@H](O)[C@H]4O)ccc2Cl)cc1 [ERTUGLIFLOZIN]: 3.6
- COc1ccc(Cc2cc([C@@H]3OC4(COC4)[C@@H](O)[C@H](O)[C@H]3O)ccc2C)cc1: 3
- CCOc1ccc(Cc2cc([C@]34OC[C@](CO)(O3)[C@@H](O)[C@H](O)[C@H]4O)ccc2C)cc1: 3

* * *

assay: Oral bioavailability in Sprague-Dawley rat at 5 mg/kg; type: ADME, organism-based; settings: in vivo
measured.property: bioavailability (%)
Reply with just the number (in %).

For the molecule CCOc1ccc(Cc2cc([C@]34OC[C@](CO)(O3)[C@@H](O)[C@H](O)[C@H]4O)ccc2Cl)cc1 , what bioavailability is on record? 69

* * *

target: Sodium/glucose cotransporter 2 (Homo sapiens, UniProt P31639); test: Inhibition of human SGLT2 expressed in CHO cells assessed as inhibition of methyl alpha-D-glucopyranoside uptake after 1 hr
Sequence (P31639 whole entry): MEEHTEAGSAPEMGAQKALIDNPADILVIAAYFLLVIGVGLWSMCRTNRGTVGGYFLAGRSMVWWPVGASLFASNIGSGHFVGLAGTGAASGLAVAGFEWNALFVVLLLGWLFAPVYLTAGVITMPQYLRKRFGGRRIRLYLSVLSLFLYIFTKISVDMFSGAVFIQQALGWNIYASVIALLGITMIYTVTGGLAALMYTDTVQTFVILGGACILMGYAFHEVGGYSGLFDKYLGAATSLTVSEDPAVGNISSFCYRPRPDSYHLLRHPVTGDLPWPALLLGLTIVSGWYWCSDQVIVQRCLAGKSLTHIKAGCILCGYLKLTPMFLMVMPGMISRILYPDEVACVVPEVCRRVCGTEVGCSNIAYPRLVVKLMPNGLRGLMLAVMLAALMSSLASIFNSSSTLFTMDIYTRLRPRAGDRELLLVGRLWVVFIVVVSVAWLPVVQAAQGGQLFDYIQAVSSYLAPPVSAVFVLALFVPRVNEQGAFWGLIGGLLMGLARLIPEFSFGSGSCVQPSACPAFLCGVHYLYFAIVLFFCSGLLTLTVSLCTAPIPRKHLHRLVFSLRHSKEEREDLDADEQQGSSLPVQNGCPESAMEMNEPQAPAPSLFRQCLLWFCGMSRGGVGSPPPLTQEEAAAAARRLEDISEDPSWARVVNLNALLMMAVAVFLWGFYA
measured.property: IC50 (nM)

• COc1ccc(Cc2cc([C@]34OC[C@](CO)(O3)[C@@H](O)[C@H](O)[C@@H]4O)ccc2Cl)cc1 = 43.1
• COc1ccc(Cc2cc([C@@H]3OC4(COC4)[C@@H](O)[C@H](O)[C@H]3O)ccc2C)cc1 = 6.98
• COc1ccc(Cc2cc([C@]34OC[C@](CO)(O3)[C@@H](O)[C@H](O)[C@H]4O)ccc2C)cc1 = 1.07
• CCOc1ccc(Cc2cc([C@]34OC[C@](CO)(O3)[C@@H](O)[C@H](O)[C@H]4O)ccc2Cl)cc1 [ERTUGLIFLOZIN] = 0.877
• CCOc1ccc(Cc2cc([C@]34OC[C@](CO)(O3)[C@@H](O)[C@H](O)[C@H]4O)ccc2C)cc1 = 1.11

a. COc1ccc(Cc2cc([C@]34OC[C@](CO)(O3)[C@@H](O)[C@H](O)[C@H]4O)ccc2Cl)cc1
b. CCOc1ccc(Cc2cc([C@]34OC[C@](CO)(O3)[C@@H](O)[C@H](O)[C@@H]4O)ccc2Cl)cc1
Pick one, a or b : lowest reported IC50. Give the label of your selection. a
(a: 0.882 nM, b: 89.9 nM)

* * *

experiment: Apparent intrinsic clearance in human liver microsomes assessed per mg of protein; type: ADME, Microsome
Entries and their measured microsomal CLint follow.

Worked cases, answers included:
* COc1ccc(Cc2cc([C@@H]3O[C@H](CO)[C@@H](O)[C@H](O)[C@H]3O)ccc2Cl)cc1 | < 9 µL/min/mg
* COc1ccc(Cc2cc([C@@H]3O[C@H](CO)[C@@H](O)[C@H](O)[C@H]3O)ccc2C)cc1 | < 8 µL/min/mg

Proceed to the following item.
So what's the measured microsomal CLint for this one? COc1ccc(Cc2cc([C@]34OC[C@](CO)(O3)[C@@H](O)[C@H](O)[C@H]4O)ccc2C)cc1 < 8 µL/min/mg
